B1: Hairpin Ribozyme (parent)
chain: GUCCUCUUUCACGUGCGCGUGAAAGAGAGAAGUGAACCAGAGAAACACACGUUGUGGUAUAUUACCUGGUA

# Variants of: B1
# TEST_NAME: self-cleavage, relative activity (ratio to wild type); higher = more cleavage; co-transcriptional
What self-cleavage was measured for each of the following?
API note: the answer field is a bare number with no unit suffix.

Prompt line: Look up self-cleavage: U7G C48G
Response line: 0.153

Prompt line: Look up self-cleavage: C3U A64C
Response line: 0.0981

Prompt line: Look up self-cleavage: A35U U62G
Response line: 0

Prompt line: Look up self-cleavage: U20G C37U
Response line: 0.594

Prompt line: Look up self-cleavage: G1U U20C
Response line: 0.203

Prompt line: Look up self-cleavage: G13A C37A
Response line: 0.373

Prompt line: Look up self-cleavage: A26U A45C
Response line: 0.223

Prompt line: Look up self-cleavage: G25U G54A
Response line: 0.496

Prompt line: Look up self-cleavage: G40U U70C
Response line: 0.12

Prompt line: Look up self-cleavage: A44G C66G
Response line: 0.15

Prompt line: Look up self-cleavage: U20C G21U
Response line: 0.652

Cited source: the RNAGym collection of RNA variant scans (doi:10.7554/elife.80360)
